- PROTOCOL NOTES: folding stability dG unfold from trypsin proteolysis; higher = more stable
Please go through the items and note down their folding stability dG unfold.
Note: unit kcal/mol is implicit; provide only the numeric part.

Prompt line: folding stability dG unfold lookup needed for SAGGSAGGSAGVRIDKDGWTIKWYNPDGEKRTFTVDSPEEAKDFLEENFPPGWRVEIEPPSAGGSAGGSAGG [r11_983_TrROS] , thanks.
Response line: 1.11

Prompt line: Need folding stability dG unfold of SAGMTTLTLSAKAPPGEAVVTLTVTLPDGTTVPLATRTVAPDEVANITVSFPSGEPIDPARLTVEVTPPSAG [r5_287_JUSTAS] , thanks.
Response line: 0.0521

Prompt line: What measured folding stability dG unfold goes with SAGGSAGGSAPPVKTITVELVFFNPETQEVFVLRAEVRLLPDGTLEIRTEIERVKVEPGAVLLSAGGSAGGS [r12_116_TrROS_Hall] ?
Response line: 1.64

Prompt line: Given the sequence SAGGSMVIRVETPEEAEEAARELAERLRELFPEVKELEIKVKVEVVDEETGEEKEYEFTIKLKLPPSAGGSA [r2_393_TrROS_Hall] , what is its reported folding stability dG unfold?
Response line: 2.54

###

I'd be grateful if you could share measured folding stability dG unfold for these entries.
- PROTOCOL NOTES: folding stability dG unfold from chymotrypsin proteolysis; higher = more stable
The reply should be a number in kcal/mol, with the unit left off.

Prompt line: Given SAGGPYMEIQFPMPEDQVRPALEKAADEWGMEVKEINYHPNNGMVTITVNDNMPPNRIRKAIEKVLKSAGGS [r8_338_TrROS] , state its recorded folding stability dG unfold.
Response line: 0.0859

Prompt line: Reported folding stability dG unfold for SAGGGNVTKTSTTTLPNGTTLVTYTGTSPSSAGSKNLSLLSLPFDVTVTKVEFDPNTGKVTIETVIPPSAGG [r13_413_JUSTAS] : what is it?
Response line: 1.25

Prompt line: What value of measured folding stability dG unfold is listed for SAGGSAMGTLRLGFVTGPDEEGRYEILDVTLEPGEPVLVTLRARFTFPDGDSVEVPFRFVVPPELLSAGGSA [r15_187_TrMRF] ?
Response line: 3.15

Prompt line: I am curious: what folding stability dG unfold value has been reported for SAGGSALRIPPGEKIKVRNPDNGKPFEFKVTNWQMNPNGNAYFQVEMTSDGKKVKWPIPLDDIEVVSAGGSA [r15_62_TrROS] ?
Response line: 0.358

###

- PROTOCOL NOTES: folding stability dG unfold (combined trypsin and chymotrypsin); higher = more stable
Exercise: for every item that follows, state its recorded folding stability dG unfold.
Give just the number in kcal/mol; leave the unit off.

Prompt line: folding stability dG unfold lookup needed for SAGGSAGGSAGVRIDKDGWTIKWYNPDGEKRTFTVDSPEEAKDFLEENFPPGWRVEIEPPSAGGSAGGSAGG [r11_983_TrROS] , thanks.
Response line: 1.33

Prompt line: # input sequence: SSMSSSPLGSDPATGTTYYLSVSNNSTTLSTVTPAPVLPISPEELEKIAKELAKKNPKLAKKAKELAEKLKS [r1_330_JUSTAS] ; wanted: its folding stability dG unfold
Response line: -0.0137

Prompt line: // returns reported folding stability dG unfold for input SADRIKINVMTHQSPDGRPYYMVSIRIPGNGKEIMGPIDSPEDAEEQAKEIADKLEKEGIPIEVEIYPMSAG [r14_263_TrROS]
Response line: 1.94

Prompt line: Using the record for SAGGSAGGSAMTFKSPEEAKKAAEELEKKTGYKIKITKIEVNEDGEKTVKIEILPPGEKLKSAGGSAGGSAG [r3_59_TrROS_Hall] , report its folding stability dG unfold.
Response line: 0.284

Prompt line: Sample SAGGSAGGSAGGMIVIEVERKEGEEERKEVIVIPNDPEKAEAEAKKLAEEGPVEKVTIKKESAGGSAGGSAG [r3_310_JUSTAS] — what was its folding stability dG unfold?
Response line: 1.04

Prompt line: Consider the sequence SAGGSAGGSAGGPWITIPLPPGEEYKIENKGNGKEQEINPNDGSIVIPNIPPDNAKVERESAGGSAGGSAGG [r7_200_TrROS] and give its measured folding stability dG unfold.
Response line: 0.232

Prompt line: Look up folding stability dG unfold for this sequence: SAGGSAGGSASITLTLGDTPLEVSTDPSTNTYTFTYPAPGLVLTLDVSTGKLSARPLAELASAGGSAGGSAG [r3_137_JUSTAS]
Response line: 1.13

Prompt line: Please look up its folding stability dG unfold: SAGGSAGGSAKRKVIEVDSLEEIKKAIEEAKEGEVVEIVVRDPETNETYTLKVVDGKIVLIPSAGGSAGGSA [r18_407_TrROS_Hall]
Response line: 2.27

Prompt line: Report folding stability dG unfold for SAGGSAGSMSEIEGLTVLEEREEPDPATGTTVPTLVVRDPEKGELYVITATTDPATGKPTYSFDLVSAGGSA [r15_170_JUSTAS] please.
Response line: 0.595

Prompt line: I would be grateful if you could share the reported folding stability dG unfold for SAGMVIPREEALANYSEEEIKELAKKIAEELGYKPKKIEIKKDPSPNSSITVTITPPDGSTIPLVLELPSAG [r5_745_JUSTAS] .
Response line: 1.06

Prompt line: Value lookup for folding stability dG unfold; key = SAGGSAGGVEELAKKLNIEVTGNEVTITLKKKKVTVKKLKAPPLKVKKYVDKKTKKIVKTEVELSAGGSAGG [r6_981_TrROS_Hall]
Response line: 0.431

Prompt line: // lookup folding stability dG unfold for SAGKKVTIKAIVRVKLANGEWFEAKVKEVTFDEETGEVTITVEVDGKTYTITVPLEDIELVDDAEEALKSAG [r5_15_TrROS_Hall]
Response line: 3.25

Prompt line: Which folding stability dG unfold is listed for SAGGSLFEKLNVKSVEVTEVKTYTLPPLPLTVEVPTVKVTLPDGTVIEFTVIKTYDPEDPTPTVTLGSAGGS [r8_422_JUSTAS] ?
Response line: 1.08

Prompt line: Item SAGGSAGGSAKKKYVFTIPVKPNTFNPEKLKKFIEKAFPEFKNYEIKVEVLPDGTAKVYIEASAGGSAGGSA [r18_65_TrMRF] has what recorded folding stability dG unfold?
Response line: 3.89

Prompt line: Which value of folding stability dG unfold has been reported for SAGGSAGGSSGKYTITVTRKNPDGTPLGVFPIEVEGESEEEAKALAEELKNQPDVVEVKVTYVDSAGGSAGG [r6_475_JUSTAS] in the records?
Response line: 1.22

Prompt line: Given SAGGSAGGSMKVSPASRSEFDGSRVITITVTKEGTGTTTDITIPFSPDEPDVDEVAKAIAESLSAGGSAGGS [r12_415_JUSTAS] , state its recorded folding stability dG unfold.
Response line: 0.838

Prompt line: Fill blank: measured folding stability dG unfold of the sequence SAGGSAGGSYSKNGQPPPTREIEIIILVEDPEEAENKADELSEMLGMPIKVEIIPEEDAKKMISAGGSAGGS [r12_766_TrROS] is ____.
Response line: 0.27

Prompt line: Which folding stability dG unfold value is on record for SAGGSAGGSAGSMVEVTYEPDPATGGSRIVTTTRFPDRNTVTVTELDPNAGVPLETVEVESAGGSAGGSAGG [r11_676_JUSTAS] ?
Response line: -0.433

Prompt line: Look at this sequence and give its reported folding stability dG unfold. SAGGSAGGSAGGMLPFEVLEVTTSTGKGKTTRTVLAREPEGPEVVLTFSPASPEEIERLLSAGGSAGGSAGG [r7_365_JUSTAS]
Response line: 0.224

Prompt line: So what does the record say about folding stability dG unfold for SARIRIMVPPDFIMVRTPKGKMRMVDDPEEIEEIIKDILPVPIEIEPLPPNSPKFQKMMEMMMREQNGPSAG [r14_235_TrROS] ?
Response line: 0.0355

###

- PROTOCOL NOTES: folding stability dG unfold from chymotrypsin proteolysis; higher = more stable
Everything with folding stability dG unfold lower than 1 kcal/mol is Criterion not met; everything else, including exactly 1 kcal/mol, is Criterion met.

Prompt line: folding stability dG unfold >= 1 kcal/mol for MEEIKNLPGVKYEPIIEDGEIRLVRFEIPKEVFEKFGKPPVILLVEFSKDGKYRILPESIPKLLELGIIPGS [r1_256_TrMRF] ?
Response line: Criterion met

Prompt line: Check the entry SAGGSAGGSPGTLIEVRFPDRIVRIYQLPPGVYRVEVYEPPYLVATIELPNVTAEEAARLALGSAGGSAGGS [r20_8_TrMRF] : does folding stability dG unfold equal or exceed 1 kcal/mol?
Response line: Criterion met

Prompt line: For this sequence, is measured folding stability dG unfold 1 kcal/mol or higher? SAGGSAGGSAGGLEKLVELLAPGKPLEVLRIDPTPTYVRIVVRHPDYPVDTVILADPDVISAGGSAGGSAGG [r7_303_TrMRF]
Response line: Criterion not met

Prompt line: State whether the measured folding stability dG unfold reaches 1 kcal/mol, counting equality as reaching it, for SAGIKIKDISRDPNGYVEVTIVYPPGKSIKEIIELIRKLFGFKIEKVEIYPSPNGVYITYRFRIPEGAISAG [r5_774_TrROS]
Response line: Criterion met

Prompt line: Decide: folding stability dG unfold of SAGSATVTYDPDTNTVTVTLEGPDTTFTISFPNGEKLEVKATVKPLPDGSYKVLLEVYYPDGSKETFELSAG [r14_675_TrMRF] >= 1 kcal/mol?
Response line: Criterion met

Prompt line: Does the reported folding stability dG unfold for SAGGSAGGSAGGPKVEVTVKGKPATVEWFPEEGKARVTVPDGRVYVLDLNGDKLEIKPLSAGGSAGGSAGGS [r10_724_TrMRF] fall at or above the 1 kcal/mol mark?
Response line: Criterion not met

Prompt line: Is the recorded value of folding stability dG unfold equal to or greater than 1 kcal/mol for this sequence? SKLKIEDIKWNPNYPGMYEFKIKLPDKPATIQIPHDPNNGRFMMEIWYPDKPVTVQFDSWDDALAFIKELSA [r9_366_TrROS]
Response line: Criterion met
